study_target: Heat shock protein beta-1 (Homo sapiens) (UniProt P04792)
Sequence (P04792 whole entry): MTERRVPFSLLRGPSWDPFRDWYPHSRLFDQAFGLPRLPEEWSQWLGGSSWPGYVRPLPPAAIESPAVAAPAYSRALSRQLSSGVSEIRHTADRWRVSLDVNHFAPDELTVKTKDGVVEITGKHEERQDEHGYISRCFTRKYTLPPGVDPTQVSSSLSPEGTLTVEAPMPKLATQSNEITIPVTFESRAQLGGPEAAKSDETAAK
test: Inhibition of HSP27 (unknown origin) assessed as increase in DTT-induced insulin B chain aggregation at 10 uM incubated for 5 mins prior to DTT-treatment measured after 30 mins by spectrophotometric analysis relative to control
outcome_measure: inhibition

Query string: Find the measured inhibition of Cc1ccc(C)c(COc2cc(NC(=O)c3ccc(I)cc3)ccc2N(C)S(C)(=O)=O)c1 and report it.
Result string: 28%

Query string: Specify measured inhibition for COc1ccc(C(=O)Nc2ccc(N(C)S(C)(=O)=O)c(OCc3cc(OC)ccc3OC)c2)cc1 .
Result string: 9%

Query string: Provide only the value of recorded inhibition for COc1ccc(C(=O)Nc2ccc(N(C)S(C)(=O)=O)c(OCc3cc(C)ccc3C)c2)cc1
Result string: 30%

Query string: Assign inhibition to the following record: COc1ccc(OC)c(COc2cc(NC(=O)c3ccc(I)cc3)ccc2N(C)S(C)(=O)=O)c1
Result string: 27%
